Experiment: Clearance in Wistar rat at 10 mg/kg, po and 3 mg/kg, iv
Assay type: ADME, organism-based
Conditions: in vivo
Parameter clearance: see the listing below.
Answer in mL/min/kg, number only, no unit symbol.

# record_smiles, unit_string, clearance
rows = [
    ("Cc1cc(Nc2nc(N[C@@H](C)c3ncc(F)cn3)c(C#N)nc2C)n[nH]1", "mL/min/kg", 13),
]

Consider now this further molecule.
Fill in: clearance of Cc1cc(Nc2cnc(C#N)c(N[C@@H](C)c3ccc(F)cn3)n2)n[nH]1 is ___
25

###

List of half-life values.
Test: Half life Wistar rat at 10 mg/kg, po and 3 mg/kg, iv
Assay type: ADME, organism-based
Conditions: in vivo
Could you kindly put the unit after your number?

# record_smiles, result
records = [
    ("Cc1cc(Nc2cnc(C#N)c(N[C@@H](C)c3ccc(F)cn3)n2)n[nH]1", "1.2 h"),
]

Shift focus to the following entry.
What value of measured half-life is listed for Cc1cc(Nc2nc(N[C@@H](C)c3ncc(F)cn3)c(C#N)nc2C)n[nH]1 ?
1.6 h
